assayed target: PLK4 (human)
pKd: −log10 of the molar value.

| smiles notation | pKd |
| --- | --- |
| COc1cc(C(=O)N2CCC(N3CCN(C)CC3)CC2)ccc1Nc1ncc2c(n1)N(C)c1ccccc1C(=O)N2C | 7.80 |

###

assayed target: RPS6KA2 KD2 (human)
pKd: −log10 of the molar value.

| smiles notation | pKd |
| --- | --- |
| COc1cc(C(=O)N2CCC(N3CCN(C)CC3)CC2)ccc1Nc1ncc2c(n1)N(C)c1ccccc1C(=O)N2C | 6.00 |

###

assayed target: DCLK1 (human) (UniProt O15075)
Sequence (O15075 whole entry, looked up): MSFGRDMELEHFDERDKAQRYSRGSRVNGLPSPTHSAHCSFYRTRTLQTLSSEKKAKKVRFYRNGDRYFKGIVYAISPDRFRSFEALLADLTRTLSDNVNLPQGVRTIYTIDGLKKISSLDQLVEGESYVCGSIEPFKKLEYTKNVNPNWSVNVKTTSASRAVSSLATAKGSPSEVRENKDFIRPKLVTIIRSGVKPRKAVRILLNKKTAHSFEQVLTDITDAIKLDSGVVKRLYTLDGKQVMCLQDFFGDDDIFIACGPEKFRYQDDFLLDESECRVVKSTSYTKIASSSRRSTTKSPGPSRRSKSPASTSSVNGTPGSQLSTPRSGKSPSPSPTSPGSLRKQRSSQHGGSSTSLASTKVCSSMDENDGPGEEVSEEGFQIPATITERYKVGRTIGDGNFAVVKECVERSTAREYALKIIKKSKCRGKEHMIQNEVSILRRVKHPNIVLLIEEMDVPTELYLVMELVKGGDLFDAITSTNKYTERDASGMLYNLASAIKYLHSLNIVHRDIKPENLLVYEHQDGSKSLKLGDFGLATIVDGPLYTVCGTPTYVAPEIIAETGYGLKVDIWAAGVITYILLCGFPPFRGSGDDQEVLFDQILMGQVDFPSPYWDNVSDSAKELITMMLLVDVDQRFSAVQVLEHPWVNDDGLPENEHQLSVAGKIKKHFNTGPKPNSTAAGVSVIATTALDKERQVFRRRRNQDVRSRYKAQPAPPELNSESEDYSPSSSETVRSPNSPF

| smiles notation | unit abbrev | Kd |
| --- | --- | --- |
| COc1cc(C(=O)N2CCC(N3CCN(C)CC3)CC2)ccc1Nc1ncc2c(n1)N(C)c1ccccc1C(=O)N2C | nM | 5 |

###

assayed target: LRRK2 (human) (UniProt Q5S007)
Sequence (Q5S007 whole entry, looked up): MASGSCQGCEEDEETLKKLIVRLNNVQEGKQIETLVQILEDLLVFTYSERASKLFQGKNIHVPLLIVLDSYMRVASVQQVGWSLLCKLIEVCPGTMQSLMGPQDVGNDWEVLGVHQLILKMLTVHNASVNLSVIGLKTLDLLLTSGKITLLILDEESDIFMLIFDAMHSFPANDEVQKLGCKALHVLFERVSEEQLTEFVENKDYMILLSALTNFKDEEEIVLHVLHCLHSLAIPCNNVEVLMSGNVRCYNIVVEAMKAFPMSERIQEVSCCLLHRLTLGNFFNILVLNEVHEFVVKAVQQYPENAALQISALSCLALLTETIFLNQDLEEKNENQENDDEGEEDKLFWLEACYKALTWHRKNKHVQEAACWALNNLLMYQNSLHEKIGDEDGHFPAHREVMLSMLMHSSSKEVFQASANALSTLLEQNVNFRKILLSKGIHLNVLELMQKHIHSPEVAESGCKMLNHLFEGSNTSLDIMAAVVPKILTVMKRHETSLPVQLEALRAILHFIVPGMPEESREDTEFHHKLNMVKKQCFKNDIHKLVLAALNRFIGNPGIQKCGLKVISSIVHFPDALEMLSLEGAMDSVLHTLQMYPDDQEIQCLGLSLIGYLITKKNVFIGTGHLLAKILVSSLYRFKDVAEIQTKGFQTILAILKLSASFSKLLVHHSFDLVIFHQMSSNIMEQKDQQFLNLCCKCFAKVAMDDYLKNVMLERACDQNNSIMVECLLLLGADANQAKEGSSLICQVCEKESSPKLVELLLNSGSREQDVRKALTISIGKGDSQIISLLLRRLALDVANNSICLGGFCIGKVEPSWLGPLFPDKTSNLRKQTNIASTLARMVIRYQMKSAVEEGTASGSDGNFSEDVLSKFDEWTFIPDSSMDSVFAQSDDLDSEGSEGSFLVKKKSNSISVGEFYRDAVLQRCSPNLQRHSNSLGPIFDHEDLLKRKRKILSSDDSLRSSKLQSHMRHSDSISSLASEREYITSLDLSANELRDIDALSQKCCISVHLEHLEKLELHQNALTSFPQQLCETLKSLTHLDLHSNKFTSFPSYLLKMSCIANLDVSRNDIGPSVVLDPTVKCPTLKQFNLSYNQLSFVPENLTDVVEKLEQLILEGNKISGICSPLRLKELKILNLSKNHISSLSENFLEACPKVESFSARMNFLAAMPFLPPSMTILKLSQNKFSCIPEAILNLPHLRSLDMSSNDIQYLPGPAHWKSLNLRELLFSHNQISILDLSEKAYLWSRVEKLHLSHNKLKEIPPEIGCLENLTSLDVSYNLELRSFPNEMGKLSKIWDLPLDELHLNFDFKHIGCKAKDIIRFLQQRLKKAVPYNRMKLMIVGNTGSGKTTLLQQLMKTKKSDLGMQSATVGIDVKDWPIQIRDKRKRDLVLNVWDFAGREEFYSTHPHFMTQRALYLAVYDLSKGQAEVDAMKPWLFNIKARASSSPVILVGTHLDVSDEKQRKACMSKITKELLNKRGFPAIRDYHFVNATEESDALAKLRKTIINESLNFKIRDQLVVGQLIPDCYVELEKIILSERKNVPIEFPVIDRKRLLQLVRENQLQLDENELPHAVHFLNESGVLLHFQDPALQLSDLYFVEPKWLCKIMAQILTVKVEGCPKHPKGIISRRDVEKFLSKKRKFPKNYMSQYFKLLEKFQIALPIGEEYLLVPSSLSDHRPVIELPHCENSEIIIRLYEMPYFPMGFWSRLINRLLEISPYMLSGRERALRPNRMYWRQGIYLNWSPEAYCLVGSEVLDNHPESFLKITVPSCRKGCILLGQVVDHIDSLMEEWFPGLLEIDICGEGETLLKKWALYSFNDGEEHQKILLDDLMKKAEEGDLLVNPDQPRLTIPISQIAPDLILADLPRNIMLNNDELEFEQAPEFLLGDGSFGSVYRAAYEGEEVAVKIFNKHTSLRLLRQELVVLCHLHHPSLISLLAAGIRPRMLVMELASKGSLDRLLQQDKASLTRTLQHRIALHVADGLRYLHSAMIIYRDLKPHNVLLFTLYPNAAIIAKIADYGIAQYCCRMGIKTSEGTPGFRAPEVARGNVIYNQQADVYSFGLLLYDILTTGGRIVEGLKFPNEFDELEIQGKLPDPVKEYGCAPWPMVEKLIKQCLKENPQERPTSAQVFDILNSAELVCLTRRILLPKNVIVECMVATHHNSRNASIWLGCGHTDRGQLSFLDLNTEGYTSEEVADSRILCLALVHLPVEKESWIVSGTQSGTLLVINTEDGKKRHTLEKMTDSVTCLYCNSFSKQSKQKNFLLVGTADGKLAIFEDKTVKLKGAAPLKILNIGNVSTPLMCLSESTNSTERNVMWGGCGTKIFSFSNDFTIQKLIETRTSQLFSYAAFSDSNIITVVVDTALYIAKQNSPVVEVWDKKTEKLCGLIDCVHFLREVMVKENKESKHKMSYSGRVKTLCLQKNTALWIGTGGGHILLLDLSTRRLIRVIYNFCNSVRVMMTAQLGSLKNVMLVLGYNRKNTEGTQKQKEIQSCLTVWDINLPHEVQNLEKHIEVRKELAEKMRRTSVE

| smiles notation | assayed target | Kd |
| --- | --- | --- |
| COc1cc(C(=O)N2CCC(N3CCN(C)CC3)CC2)ccc1Nc1ncc2c(n1)N(C)c1ccccc1C(=O)N2C | LRRK2 (human) (UniProt Q5S007) | 20 nM |

###

assayed target: AURKB (human)
protocol text: radiometric filter-binding kinase assay
pIC50: −log10 of the molar value.

| smiles notation | pIC50 |
| --- | --- |
| COc1cc(C(=O)N2CCC(N3CCN(C)CC3)CC2)ccc1Nc1ncc2c(n1)N(C)c1ccccc1C(=O)N2C | 5.96 |

###

assayed target: RPS6KA6 KD2 (human)
quantity name: Kd

| smiles notation | observed |
| --- | --- |
| COc1cc(C(=O)N2CCC(N3CCN(C)CC3)CC2)ccc1Nc1ncc2c(n1)N(C)c1ccccc1C(=O)N2C | 620 nM |

###

assayed target: UniProtKB Q8N568
Sequence (Q8N568 whole entry, looked up): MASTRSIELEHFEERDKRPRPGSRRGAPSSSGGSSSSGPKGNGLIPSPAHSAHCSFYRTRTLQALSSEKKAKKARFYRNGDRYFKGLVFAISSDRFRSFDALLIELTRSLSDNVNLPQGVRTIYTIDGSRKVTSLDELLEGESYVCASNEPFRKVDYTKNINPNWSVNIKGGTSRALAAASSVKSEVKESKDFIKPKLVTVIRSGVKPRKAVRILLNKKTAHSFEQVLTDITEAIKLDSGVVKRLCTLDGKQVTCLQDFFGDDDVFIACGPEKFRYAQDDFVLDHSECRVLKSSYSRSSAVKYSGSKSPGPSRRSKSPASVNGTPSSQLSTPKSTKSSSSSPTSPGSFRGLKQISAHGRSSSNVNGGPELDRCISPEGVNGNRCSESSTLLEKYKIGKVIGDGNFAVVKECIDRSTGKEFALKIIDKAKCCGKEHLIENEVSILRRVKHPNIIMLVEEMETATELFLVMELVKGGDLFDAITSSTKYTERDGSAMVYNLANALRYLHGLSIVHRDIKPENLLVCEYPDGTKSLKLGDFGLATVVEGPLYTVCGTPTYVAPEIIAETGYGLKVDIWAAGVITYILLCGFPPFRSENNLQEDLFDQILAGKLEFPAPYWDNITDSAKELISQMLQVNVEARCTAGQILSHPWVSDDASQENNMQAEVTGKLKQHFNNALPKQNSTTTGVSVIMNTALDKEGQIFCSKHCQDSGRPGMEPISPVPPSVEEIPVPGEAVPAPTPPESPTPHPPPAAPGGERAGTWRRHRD
protocol text: radiometric filter-binding kinase assay
pIC50: −log10 of the molar value.

| smiles notation | pIC50 |
| --- | --- |
| COc1cc(C(=O)N2CCC(N3CCN(C)CC3)CC2)ccc1Nc1ncc2c(n1)N(C)c1ccccc1C(=O)N2C | 6.68 |

###

assayed target: UniProt:Q9HBH9
Sequence (Q9HBH9 whole entry, looked up): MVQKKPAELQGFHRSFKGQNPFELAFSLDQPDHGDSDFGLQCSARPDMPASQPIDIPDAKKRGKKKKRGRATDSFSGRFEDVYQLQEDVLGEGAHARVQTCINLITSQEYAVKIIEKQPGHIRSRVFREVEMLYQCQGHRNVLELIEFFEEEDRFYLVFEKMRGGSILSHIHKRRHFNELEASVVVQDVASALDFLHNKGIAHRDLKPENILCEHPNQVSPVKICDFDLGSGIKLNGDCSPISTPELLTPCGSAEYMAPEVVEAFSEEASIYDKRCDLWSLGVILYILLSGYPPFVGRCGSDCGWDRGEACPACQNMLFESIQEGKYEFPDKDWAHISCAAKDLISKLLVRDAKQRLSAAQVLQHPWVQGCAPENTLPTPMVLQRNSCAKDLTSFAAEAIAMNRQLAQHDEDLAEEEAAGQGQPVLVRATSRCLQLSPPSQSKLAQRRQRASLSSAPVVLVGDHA
protocol text: SelectScreen, TR FRET
quantity name: IC50

| smiles notation | quantity name | observed |
| --- | --- | --- |
| COc1cc(C(=O)N2CCC(N3CCN(C)CC3)CC2)ccc1Nc1ncc2c(n1)N(C)c1ccccc1C(=O)N2C | IC50 | 4.47 µM |

###

assayed target: UniProt P53350
Sequence (P53350 whole entry, looked up): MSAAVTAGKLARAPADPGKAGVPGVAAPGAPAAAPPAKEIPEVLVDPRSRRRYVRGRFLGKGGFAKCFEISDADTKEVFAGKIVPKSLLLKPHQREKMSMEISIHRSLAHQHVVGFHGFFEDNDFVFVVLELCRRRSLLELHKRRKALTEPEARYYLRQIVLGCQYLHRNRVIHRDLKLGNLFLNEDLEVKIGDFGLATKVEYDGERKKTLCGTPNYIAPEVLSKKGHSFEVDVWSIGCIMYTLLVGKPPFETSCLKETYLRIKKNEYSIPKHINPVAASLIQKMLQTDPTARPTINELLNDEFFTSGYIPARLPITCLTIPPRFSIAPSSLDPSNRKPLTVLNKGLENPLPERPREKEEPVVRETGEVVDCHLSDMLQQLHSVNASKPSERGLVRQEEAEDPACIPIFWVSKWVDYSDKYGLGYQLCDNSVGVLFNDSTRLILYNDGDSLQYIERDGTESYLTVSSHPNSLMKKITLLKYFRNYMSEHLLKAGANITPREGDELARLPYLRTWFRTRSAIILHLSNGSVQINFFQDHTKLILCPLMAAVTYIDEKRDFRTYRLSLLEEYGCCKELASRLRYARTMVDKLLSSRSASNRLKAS
protocol text: SelectScreen, TR FRET
pIC50: −log10 of the molar value.

| smiles notation | pIC50 |
| --- | --- |
| COc1cc(C(=O)N2CCC(N3CCN(C)CC3)CC2)ccc1Nc1ncc2c(n1)N(C)c1ccccc1C(=O)N2C | 3.01 |

###

assayed target: CHEK2 (human)
protocol text: SelectScreen, TR FRET
pIC50: −log10 of the molar value.

| smiles notation | pIC50 |
| --- | --- |
| COc1cc(C(=O)N2CCC(N3CCN(C)CC3)CC2)ccc1Nc1ncc2c(n1)N(C)c1ccccc1C(=O)N2C | 5.19 |

###

assayed target: MKNK2 (human)
protocol text: KINOMEscan competition binding
quantity name: Kd (nM)

| smiles notation | observed |
| --- | --- |
| COc1cc(C(=O)N2CCC(N3CCN(C)CC3)CC2)ccc1Nc1ncc2c(n1)N(C)c1ccccc1C(=O)N2C | 380 |

The values you see were collected from the kinase profiling compilation of Christmann-Franck et al. (2016).
